Biological target: Bcl-xL (Homo sapiens)
Assay: Inhibition of Bak peptide binding to human recombinant Bcl-Xl
reported metric: pKi
Here pKi is given on a logarithmic scale as minus log10 of the concentration in mol/L.

O=C(O)[C@H](Cc1ccccc1)N1C(=O)/C(=C/c2ccc(OCCOc3ccc(/C=C4\SC(=S)N([C@@H](Cc5ccccc5)C(=O)O)C4=O)cc3)cc2)SC1=S : 6.01
CCOC(=O)[C@H](Cc1ccccc1)N1C(=O)/C(=C/c2ccc(OCOc3ccc(/C=C4\SC(=S)N([C@@H](Cc5ccccc5)C(=O)OCC)C4=O)cc3)cc2)SC1=S : 4.23

Moving on to another compound below.
# pKi (compound: O=C(OCCOC(=O)[C@H](Cc1ccccc1)N1C(=O)/C(=C/c2ccc(Br)cc2)SC1=S)[C@H](Cc1ccccc1)N1C(=O)/C(=C/c2ccc(Br)cc2)SC1=S ) is 3.87
